Listed here: items and their measured chromatographic logP.
# Procedure Details: log P determination by HPLC (EEC Directive 79/831 Annex V.A8)
# Assay type: physicochemical
# Condition Context: reversed-phase HPLC, Zorbax Eclipse C18 column, determined by HPLC according to EEC Directive 79/831 Annex V.A8; read-out: log P
Endpoint Name: chromatographic logP

[
  {
    "Compound": "CCNC(=O)c1cc(C#N)cc(C)c1NC(=O)c1cc(Cn2nnnc2C(F)(F)C(F)(F)F)nn1-c1ncccc1Br [Example 519]",
    "Endpoint Name": "chromatographic logP",
    "Measured Result": 2.94
  },
  {
    "Compound": "Cc1cc(C#N)cc(C(=O)NC(C)(C)C)c1NC(=O)c1cc(Cn2nnc(C(F)(F)F)n2)nn1-c1ccc(Cl)cc1 [Example 527]",
    "Endpoint Name": "chromatographic logP",
    "Measured Result": 4.16
  },
  {
    "Compound": "Cc1cc(C#N)cc(C(=O)NCC(F)(F)F)c1NC(=O)c1cc(Cn2nnnc2C(F)(F)F)nn1-c1ccccc1Cl [Example 538]",
    "Endpoint Name": "chromatographic logP",
    "Measured Result": 3.2
  },
  {
    "Compound": "Cc1cc(I)cc(C(=O)NC(C)C)c1NC(=O)c1cc(Cn2nnnc2C(F)(F)F)nn1-c1ncccc1Br [Example 504]",
    "Endpoint Name": "chromatographic logP",
    "Measured Result": 3.41
  },
  {
    "Compound": "CNC(=O)c1cc(Cl)cc(C)c1NC(=O)c1cc(Cn2nnnc2C(F)(F)F)nn1-c1ncccc1Br [Example 480]",
    "Endpoint Name": "chromatographic logP",
    "Measured Result": 2.79
  },
  {
    "Compound": "Cc1cc(C#N)cc(C(=O)NCC2CC2)c1NC(=O)c1cc(Cn2nnc(C(F)(F)F)n2)nn1-c1ccccc1Cl [Example 440]",
    "Endpoint Name": "chromatographic logP",
    "Measured Result": 3.61
  },
  {
    "Compound": "CNC(=O)c1cc(Cl)cc(C)c1NC(=O)c1cc(Cn2nnc(C(F)(F)F)n2)nn1-c1ccccc1 [Example 404]",
    "Endpoint Name": "chromatographic logP",
    "Measured Result": 3.19
  },
  {
    "Compound": "CNC(=O)c1cc(C#N)cc(C)c1NC(=O)c1cc(Cn2nnnc2C(F)(F)C(F)(F)F)nn1-c1ncccc1Br [Example 516]",
    "Endpoint Name": "chromatographic logP",
    "Measured Result": 2.72
  },
  {
    "Compound": "Cc1cc(C#N)cc(C(=O)NC(C)(C)C)c1NC(=O)c1cc(Cn2nnnc2C(F)(F)F)nn1-c1ncccc1F [Example 509]",
    "Endpoint Name": "chromatographic logP",
    "Measured Result": 2.92
  },
  {
    "Compound": "Cc1cc(Br)cc(C(N)=O)c1NC(=O)c1cc(Cn2nnnc2C(F)(F)F)nn1-c1ncccc1Br [Example 498]",
    "Endpoint Name": "chromatographic logP",
    "Measured Result": 2.51
  },
  {
    "Compound": "Cc1cc(Cl)cc(C(=O)NC(C)(C)C)c1NC(=O)c1cc(Cn2nnnc2C(F)(F)C(F)(F)F)nn1-c1ccccc1Cl [Example 536]",
    "Endpoint Name": "chromatographic logP",
    "Measured Result": 4.41
  },
  {
    "Compound": "CCNC(=O)c1cc(I)cc(C)c1NC(=O)c1cc(Cn2nnnc2C(F)(F)F)nn1-c1ncccc1Br [Example 503]",
    "Endpoint Name": "chromatographic logP",
    "Measured Result": 3.16
  },
  {
    "Compound": "Cc1cc(C#N)cc(C(N)=O)c1NC(=O)c1cc(Cn2nnnc2C(F)(F)C(F)(F)F)nn1-c1ncccc1Br [Example 517]",
    "Endpoint Name": "chromatographic logP",
    "Measured Result": 2.53
  },
  {
    "Compound": "Cc1cc(C#N)cc(C(=O)NC(C)(C)C)c1NC(=O)c1cc(Cn2nnc(C(F)(F)C(F)(F)F)n2)nn1-c1ccccc1Cl [Example 434]",
    "Endpoint Name": "chromatographic logP",
    "Measured Result": 4.25
  }
]
